Each recorded value in this set is attributed to patent US20250263424A1.

Listed next: entries and their corresponding log10(IC50).
SYSTEM: Recombinant GMPPNP-loaded KRAS G12C (KRAS-G12C(ON), active form) (Homo sapiens, UniProt P01116, G12C)
Sequence (P01116 1-188 isoform P01116-2 G12C): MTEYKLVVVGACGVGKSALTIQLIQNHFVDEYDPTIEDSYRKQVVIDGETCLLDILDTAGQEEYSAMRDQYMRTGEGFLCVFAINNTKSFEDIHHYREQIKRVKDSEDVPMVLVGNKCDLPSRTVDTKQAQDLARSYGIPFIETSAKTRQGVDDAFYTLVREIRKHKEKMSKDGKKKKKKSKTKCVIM
PROTOCOL_TEXT: KRAS G12C RAF Disruption Assay (HTRF)
Assay type: biochemical
MEASUREMENT_CONDITIONS: GMPPNP-loaded KRAS G12C 5 nM, GST-RAF1 RBD 9 nM, values in nM, read-out: KRASG12C RAF Disruption Assay (IC50)
Description: This is a functional assay that measures activity of compounds against […]., the active form of KRAS G12C. Recombinant GMPPNP-loaded KRAS G12C (5 nM) was treated with compound at room temperature for 20 minutes in assay buffer (50 mM Tris pH 7.5, 100 mM NaCl, 1 mM MgCl2, 1 mM DTT, 100 μg/ml BSA). […] HTRF signal was measured (PerkinElmer Envision), the signal ratio (λem 520/λem 495) was calculated, and IC50 values were calculated from the dose-response curve.
MEASURED_ENDPOINT: log10(IC50) (log10 of the value in nM)

CN1CCC[C@H]1COc1nc(N2CCN(C(=O)/C(F)=C/c3cccnn3)[C@@H](CC#N)C2)c2ccc(-c3c(O)cccc3F)c(F)c2n1 | 2.11
CN1CCC[C@H]1COc1nc(N2CCN(C(=O)/C(F)=C/c3nccs3)[C@@H](CC#N)C2)c2ccc(-c3cccc4cccc(Cl)c34)c(F)c2n1 | 1.88
CN1CCC[C@H]1COc1nc(N2CCN(C(=O)/C(F)=C/c3ncccn3)[C@@H](CC#N)C2)c2ccc(-c3cccc4cccc(Cl)c34)c(F)c2n1 | 2.11
N#CC[C@H]1CN(c2nc(OC[C@@]34CCCN3C[C@H](F)C4)nc3c(F)c(-c4cccc5cccc(Cl)c45)ccc23)CCN1C(=O)/C(F)=C/c1nccs1 | 1.78
COc1ccc(Cl)cc1-c1ccc2c(N3CCN(C(=O)/C(F)=C/c4nccs4)[C@@H](CC#N)C3)nc(OC[C@@H]3CCCN3C)nc2c1F | 3.49
Cc1ccc2[nH]ncc2c1-c1ccc2c(N3CCN(C(=O)/C(F)=C/c4nccs4)[C@@H](CC#N)C3)nc(OC[C@@]34CCCN3C[C@H](F)C4)nc2c1F | 1.70
CN1CCC[C@H]1COc1nc(N2CCN(C(=O)/C(F)=C/c3ccccn3)[C@@H](CC#N)C2)c2ccc(-c3cc(O)cc4ccccc34)c(F)c2n1 | 1.34
COc1ccc(Cl)cc1-c1ccc2c(N3CCN(C(=O)/C(F)=C/c4cnccn4)[C@@H](CC#N)C3)nc(OC[C@@H]3CCCN3C)nc2c1F | 4.79
CN1CCC[C@H]1COc1nc(N2CCN(C(=O)/C(F)=C/c3ccccn3)[C@@H](CC#N)C2)c2ccc(-c3cc(Cl)ccc3OC(F)(F)F)c(F)c2n1 | 3.32
CCc1cccc2cccc(-c3ccc4c(N5CCN(C(=O)/C(F)=C/c6cnccn6)[C@@H](CC#N)C5)nc(OC[C@@H]5CCCN5C)nc4c3F)c12 | 3.38
Cc1cc(N)nc(-c2c(Cl)cc3c(N4C[C@]5(NC(=O)/C(F)=C/c6nccs6)CC[C@H]4C5)nc(OC[C@@H]4CCCN4C)nc3c2F)c1C(F)(F)F (atropisomer, axis not shown) | 3.41
CN1CCC[C@H]1COc1nc(N2CCN(C(=O)/C(F)=C/c3nccs3)[C@@H](CC#N)C2)c2ccc(-c3cc(Cl)ccc3OC(F)(F)F)c(F)c2n1 | 3.51
CN1CCC[C@H]1COc1nc(N2CCN(C(=O)/C(F)=C/c3cnccn3)[C@@H](CC#N)C2)c2ccc(-c3cc(Cl)ccc3OC(F)(F)F)c(F)c2n1 | 4.31
COCCCN1CCC(Oc2nc(N3CCN(C(=O)/C(F)=C/c4ccccn4)[C@@H](CC#N)C3)c3ccc(-c4cccc5cccc(Cl)c45)c(F)c3n2)CC1 | 2.85
C#Cc1cccc2cccc(-c3ccc4c(N5CCN(C(=O)/C(F)=C/c6cnccn6)[C@@H](CC#N)C5)nc(OC[C@@]56CCCN5C[C@H](F)C6)nc4c3F)c12 | 1.62
Cc1cc2[nH]ncc2c(-c2ccc3c(N(C)[C@@H]4CCN(C(=O)/C(F)=C/c5ccccn5)C4)nc(OC[C@@]45CCCN4C[C@H](F)C5)nc3c2F)c1Cl | 1.34
C#Cc1cccc2cccc(-c3ccc4c(N5CCN(C(=O)/C(F)=C/c6ccccn6)[C@@H](CC#N)C5)nc(OC[C@@]56CCCN5C[C@H](F)C6)nc4c3F)c12 | 1.40

====

Listed next: entries and their corresponding IC50.
SYSTEM: Recombinant GMPPNP-loaded KRAS G12C (KRAS-G12C(ON), active form) (Homo sapiens, UniProt P01116, G12C)
PROTOCOL_TEXT: KRAS G12C RAF Disruption Assay (HTRF)
Assay type: biochemical
MEASUREMENT_CONDITIONS: GMPPNP-loaded KRAS G12C 5 nM, GST-RAF1 RBD 9 nM, values given in μM, read-out: KRASG12C RAF Disruption Assay (IC50)
MEASURED_ENDPOINT: IC50 (µM)

Cc1cc(N)nc(-c2c(Cl)cc3c(N4CCC5C4CCN5C(=O)/C(F)=C/c4nccs4)nc(OC[C@]45CCCN4C[C@H](F)C5)nc3c2F)c1C(F)(F)F (single isomer, unassigned) [Example 25, Isomer 2] | 67.6
Cc1cc(N)nc(-c2c(Cl)cc3c(N4CCC5C4CCN5C(=O)/C(F)=C/c4nccs4)nc(OC[C@]45CCCN4C[C@H](F)C5)nc3c2F)c1C(F)(F)F (single isomer, unassigned) [Example 25, Isomer 1] | 14.1
Cc1cc(N)nc(-c2c(Cl)cc3c(N4CCC5C(CCN5C(=O)/C(F)=C/c5nccs5)C4)nc(OC[C@]45CCCN4C[C@H](F)C5)nc3c2F)c1C(F)(F)F (single isomer, unassigned) [Example 26, Isomer 1] | 3.37
